Test: Solubility in water, saturated suspension filtered and measured by HPLC
Type: physicochemical
Details: 50 °C, thermodynamic from solid; water; read-out: water solubility
ENDPOINT: solubility

Task: Need solubility of CN(NC(=O)CC(=O)NN(C)C(=S)c1ccccc1)C(=S)c1ccccc1 [Compound 1] , thanks.
Output: > 1000 mg/mL

###

Test: Pharmacokinetics study in dog, bioavailability AUCpo/AUCiv
Format: in vivo
Settings: dog, plasma; male beagle dogs; capsule oral vs intravenous solution; AUCpo/AUCiv; read-out: Bioavailability
ENDPOINT: bioavailability

Task: Need bioavailability of CN(/N=C(\[O-])CC(=O)NN(C)C(=S)c1ccccc1)C(=S)c1ccccc1.[Na+] , thanks.
Output: 35%

###

Assay: Solubility in water, saturated suspension filtered and measured by HPLC
Type: physicochemical
Settings: thermodynamic from solid; water; shaken and sonicated about 5-10 min at about 50° C.; filtered 0.2 μm; HPLC; read-out: Solubility in water
ENDPOINT: solubility (mg/mL)
Numeric only. Scale: mg/mL

A selection of reference data follows.
CN(/N=C(\[O-])C/C([O-])=N/N(C)C(=S)c1ccccc1)C(=S)c1ccccc1.[Mg+2] [Compound 8]; 43.5
CN(/N=C(\[O-])CC(=O)NN(C)C(=S)c1ccccc1)C(=S)c1ccccc1.[Li+] [Compound 4]; 53.5

Task: Need solubility of CN(/N=C(\[O-])C/C([O-])=N/N(C)C(=S)c1ccccc1)C(=S)c1ccccc1.[Li+].[Li+] [Compound 5] , thanks.
Output: 626

###

Assay: Pharmacokinetics study in dog, bioavailability AUCpo/AUCiv
Type: in vivo
Conditions: male, beagle, plasma, oral; see Example 16 (dog); read-out: bioavailability
ENDPOINT: bioavailability (%)
Numeric only. Scale: %

Task: Need bioavailability of CN(NC(=O)CC(=O)NN(C)C(=S)c1ccccc1)C(=S)c1ccccc1 , thanks.
Output: 80
